Numbers sourced from patent US20230257396A1.

Biological target: kinases (Homo sapiens, UniProt P00519, H396P)
Construct: purchased Eurofins/DiscoveRx; host or cells: E. coli BL21-derived host (T7 phage display) for most kinases; HEK-293 for the rest
Test: KINOMEscan kinase binding assay (Eurofins/DiscoveRx), % Ctrl
Settings: 1 μM; target ABL1(H396P)-nonphosphorylated
Entries and their measured % Ctrl, ABL1(H396P)-nonphosphorylated follow.
Measure: % Ctrl, ABL1(H396P)-nonphosphorylated (% Ctrl)

smiles_string=Cc1cc2c([nH]1)/C=C1\C(=O)Nc3ccc(cc31)-c1c(noc1C(C)C)COCCN(C)C2=O reported=91
smiles_string=CN1CCOc2cc3c(cc2Cl)NC(=O)/C3=C\c2[nH]ccc2C(=O)N(C)CC1 reported=0
smiles_string=Cc1cc2c([nH]1)/C=C1\C(=O)Nc3cc(Cl)c(cc31)SCCOCCN(C)C2=O reported=0

====

Target: kinases (Homo sapiens, UniProt P00519, M351T)
Construct: purchased Eurofins/DiscoveRx; host or cells: E. coli BL21-derived host (T7 phage display) for most kinases; HEK-293 for the rest
Assay: KINOMEscan kinase binding assay (Eurofins/DiscoveRx), % Ctrl
Conditions: 1 μM; ABL1(M351T)-phosphorylated
% Ctrl, ABL1(M351T)-phosphorylated under 80 % Ctrl gets Condition met, anything at or over 80 % Ctrl gets Condition not met.

smiles_string=Cc1cc2c([nH]1)/C=C1\C(=O)Nc3ccc(cc31)OCCOCCNC2=O assigned_class="Condition not met"
smiles_string=CNC(=O)[C@H]1CN(C)C(=O)c2cc(C)[nH]c2/C=C2\C(=O)Nc3cc(Cl)c(cc32)OCCO1 assigned_class="Condition met"
smiles_string=Cc1cc2c([nH]1)/C=C1\C(=O)Nc3ccc(cc31)-c1cnn(C)c1CN(C)CCN(C)C2=O assigned_class="Condition met"
smiles_string=Cc1cc2c([nH]1)/C=C1\C(=O)Nc3ccc(nc31)-c1ccccc1OCCCNC2=O assigned_class="Condition not met"
smiles_string=Cc1cc2c([nH]1)/C=C1\C(=O)Nc3cc(Cl)c(cc31)OCCO[C@@H](C(=O)N[C@@H]1CCNC1)CN(C)C2=O assigned_class="Condition met"

====

Target: kinases (Homo sapiens, UniProt P10721)
Construct: purchased Eurofins/DiscoveRx; host or cells: E. coli BL21-derived host (T7 phage display) for most kinases; HEK-293 for the rest
Sequence (P10721 26-976): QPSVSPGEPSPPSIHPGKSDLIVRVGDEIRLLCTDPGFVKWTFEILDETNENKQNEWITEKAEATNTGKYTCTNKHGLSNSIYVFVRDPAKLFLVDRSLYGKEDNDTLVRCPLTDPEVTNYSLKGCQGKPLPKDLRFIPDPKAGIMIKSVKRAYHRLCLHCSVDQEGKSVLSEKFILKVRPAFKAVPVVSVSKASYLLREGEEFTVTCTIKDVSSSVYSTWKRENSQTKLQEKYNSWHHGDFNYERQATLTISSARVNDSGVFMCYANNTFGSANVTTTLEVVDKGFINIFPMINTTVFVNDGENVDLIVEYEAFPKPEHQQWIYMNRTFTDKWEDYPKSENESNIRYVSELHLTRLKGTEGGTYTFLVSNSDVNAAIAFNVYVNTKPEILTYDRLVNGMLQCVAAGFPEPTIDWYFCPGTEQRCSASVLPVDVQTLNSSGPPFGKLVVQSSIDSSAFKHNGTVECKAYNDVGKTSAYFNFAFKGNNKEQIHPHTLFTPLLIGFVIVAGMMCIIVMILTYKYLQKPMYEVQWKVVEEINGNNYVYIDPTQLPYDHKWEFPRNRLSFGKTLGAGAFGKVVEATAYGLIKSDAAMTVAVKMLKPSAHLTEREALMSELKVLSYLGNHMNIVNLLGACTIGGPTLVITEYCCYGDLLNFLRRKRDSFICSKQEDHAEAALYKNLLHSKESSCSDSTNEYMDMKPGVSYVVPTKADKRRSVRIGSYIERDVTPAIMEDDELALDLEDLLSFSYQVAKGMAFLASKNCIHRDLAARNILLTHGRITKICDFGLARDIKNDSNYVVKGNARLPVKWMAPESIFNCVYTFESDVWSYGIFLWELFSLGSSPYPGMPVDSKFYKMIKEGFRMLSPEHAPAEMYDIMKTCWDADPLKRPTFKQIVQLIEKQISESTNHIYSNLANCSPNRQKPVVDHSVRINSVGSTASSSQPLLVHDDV
Assay: KINOMEscan kinase binding assay (Eurofins/DiscoveRx), % Ctrl
Details: 1 μM; KIT-autoinhibited
Measure: % Ctrl, KIT-autoinhibited (% Ctrl)

smiles_string=CNC(=O)[C@H]1CN(C)C(=O)c2cc(C)[nH]c2/C=C2\C(=O)Nc3cc(Cl)c(cc32)OCCO1 measure="% Ctrl, KIT-autoinhibited" reported=82
smiles_string=Cc1cc2c([nH]1)/C=C1\C(=O)Nc3cnc(nc31)N(C)CCCOCCN(C)C2=O measure="% Ctrl, KIT-autoinhibited" reported=100
smiles_string=Cc1cc2c([nH]1)/C=C1\C(=O)Nc3ccc(cc31)-c1cnn(C)c1COCCN(C)C2=O measure="% Ctrl, KIT-autoinhibited" reported=93
smiles_string=Cc1cc2c([nH]1)/C=C1\C(=O)Nc3cc(Cl)c(cc31)OCCO[C@@H](C(=O)NC1CNC1)CN(C)C2=O measure="% Ctrl, KIT-autoinhibited" reported=75
smiles_string=Cc1cc2c([nH]1)/C=C1\C(=O)Nc3ccc(cc31)-c1cnn(C)c1CN(C)CCN(C)C2=O measure="% Ctrl, KIT-autoinhibited" reported=84
smiles_string=Cc1cc2c([nH]1)/C=C1\C(=O)Nc3ccc(cc31)-c1ccnn1CCOCCN(C)C2=O measure="% Ctrl, KIT-autoinhibited" reported=78
smiles_string=Cc1cc2c([nH]1)/C=C1\C(=O)Nc3cc(Cl)c(cc31)OCCO[C@@H](C(=O)NC1CCNCC1)CN(C)C2=O measure="% Ctrl, KIT-autoinhibited" reported=94
smiles_string=Cc1cc2c([nH]1)/C=C1\C(=O)Nc3ccc(cc31)CN(C)C(=O)COCCNC2=O measure="% Ctrl, KIT-autoinhibited" reported=100
smiles_string=Cc1cc2c([nH]1)/C=C1\C(=O)Nc3ccc(cc31)-c1c(C)n[nH]c1CNCCN(C)C2=O measure="% Ctrl, KIT-autoinhibited" reported=80
smiles_string=Cc1cc2c([nH]1)/C=C1\C(=O)Nc3cnc(cc31)-c1cnn(C)c1COCCNC2=O measure="% Ctrl, KIT-autoinhibited" reported=97
smiles_string=Cc1cc2c([nH]1)/C=C1\C(=O)Nc3ccc(nc31)-c1ccccc1OCCCNC2=O measure="% Ctrl, KIT-autoinhibited" reported=100
smiles_string=Cc1cc2c([nH]1)/C=C1\C(=O)Nc3ccc(cc31)-c1ccnn1CCOCCNC2=O measure="% Ctrl, KIT-autoinhibited" reported=86
